Data provenance is PubChem BioAssay.

- testDescription: antimalarial activity against Dd2 strain (AID 2302);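 note: 0% = DMSO untreated growth and 100% = chloroquine plus artemisinin killed control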
- testConditions: P. falciparum Dd2 in RBCs, LDH growth readout, 72 h; at 2 µM
Activity calls are given as the source filed them.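 Rule for the calls: active = growth inhibition above 50% at the single 2 µM test dose, taken to imply half-maximal potency below 2 µM; inactive = the rest.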
Outcome codes: active, inactive

compound	discreteLabel
O=C(Nc1ccc(SC(F)(F)F)cc1)Nc1ccnc2ccccc12	inactive
Cc1cc(F)ccc1-c1nc(Nc2ccncc2)c2ccn(C)c2n1	inactive
COc1ccc(C2CC(c3ccccc3)=NN2C(=O)c2ccc(Br)o2)cc1 (stereo not given)	inactive
Cc1[nH]c(/C=C2\C(=O)Nc3ccc(S(=O)(=O)Cc4c(Cl)cccc4Cl)cc32)c(C)c1C(=O)N1CCC[C@@H]1CN1CCCC1	active
NC1=NC2(CCCCC2)N(OCCCCCCc2ccccc2)C(N)=N1	active
Nc1nc(N)c2c(ccc3c2ccn3CCCC(F)(F)F)n1	inactive
CCOc1cc(C)ccc1C1CCN(CCCCNC(=O)c2cnc(-c3ccc(C(F)(F)F)cc3)[nH]2)CC1	active
COc1ccc2c(OC)c(CNCCCCCCNCc3ccc4cc(OC)ccc4c3OC)ccc2c1	inactive
CCn1c(-c2nonc2N)nc2c(-c3ccccc3)ncc(OCCCCNCCc3ncc[nH]3)c21	inactive
CC(=O)Nc1cccc(Nc2nccc(Nc3ccc(Oc4ccccc4)cc3)n2)c1	active

* * *

- testDescription: sensitizers of A549 cells to miR-34 induction, primary screen, imaging, A549 dox-inducible miR-34, nuclei and caspase counts (AID 1347080)
- testConditions: A549 miR-34 inducible, Hoechst nuclei count, 48 h; measured here: total cells with miR-34 induction; stronger effect = lower value
readout: cell count

molecule	readout	dataValue
CC(C)(O)c1ccccc1CC[C@@H](SC1(CC(=O)O)CC1)c1cccc(/C=C/c2ccc3ccc(Cl)cc3n2)c1	cell count	9020
CCCCC/C=C/CCC(=O)N[C@H]1[C@H](Oc2c3cc4cc2Oc2ccc(cc2Cl)[C@@H](O[C@@H]2O[C@H](CO)[C@@H](O)[C@H](O)[C@H]2NC(C)=O)[C@@H]2NC(=O)[C@H](NC(=O)[C@@H]4NC(=O)[C@H]4NC(=O)C(Cc5ccc(c(Cl)c5)O3)NC(=O)[C@H](N)c3ccc(O)c(c3)Oc3cc(O)cc4c3)c3ccc(O)c(c3)-c3c(OC4O[C@H](CO)[C@@H](O)[C@H](O)[C@@H]4O)cc(O)cc3[C@@H](C(=O)O)NC2=O)O[C@H](CO)[C@@H](O)[C@@H]1O (some centres undefined)	cell count	12100
COc1cc(NS(C)(=O)=O)ccc1Cc1c2ccccc2nc2ccccc12	cell count	3640
CN(C)[C@@H]1C(=O)C(C(=O)NCN2CCCC2)=C(O)[C@@]2(O)C(=O)C3=C(O)c4c(O)cccc4[C@@](C)(O)C3CC12 (some centres undefined)	cell count	9290

* * *

- testDescription: sensitizers of A549 cells to miR-34 induction, primary screen, imaging, A549 dox-inducible miR-34, nuclei and caspase counts (AID 1347080)
- testConditions: A549 miR-34 inducible, Hoechst nuclei count, 48 h; measured here: total cells without miR-34 induction
Numbered stars: 1 amine (or outer) side, 2 acyl side, 3 side chain; on linkers, the order of the positions; unused ones are H or OH. Bridge positions count the residues as written; N and C are the ends. Square brackets hold non-standard residues; d marks the D form. Peptide text beside a SMILES is read from it. I, II: the chains in the order shown. Actinocin(9to1) = Cc1c2oc3c(C)ccc(C(=O)[*:1])c3nc-2c(C(=O)[*:2])c(N)c1=O; NMeV = CN[CH](C(=O)O)C(C)C; Sar = CNCC(=O)O

compound	cell count
Cc1c2oc3c(C)ccc(C(=O)NC4C(=O)NC(C(C)C)C(=O)N5CCCC5C(=O)N(C)CC(=O)N(C)C(C(C)C)C(=O)OC4C)c3nc-2c(C(=O)NC2C(=O)NC(C(C)C)C(=O)N3CCCC3C(=O)N(C)CC(=O)N(C)C(C(C)C)C(=O)OC2C)c(N)c1=O (stereo not given) (I: TVP[Sar][NMeV] / II: TVP[Sar][NMeV]; ester I:1-I:C, II:1-II:C; linker I:N-II:N via Actinocin(9to1); configuration not given here)	2570
C[C@@H]1CC2C3CCC4=CC(=O)C=C[C@]4(C)[C@@]3(F)[C@@H](O)C[C@]2(C)[C@@]1(O)C(=O)COP(=O)(O)O (stereo not given in full)	8540
CNC(=O)Oc1ccc2c(c1)[C@]1(C)CCN(C)C1N2C (stereo not given in full)	10600
CC(=O)OCC(=O)[C@@]12OC(C)(C)O[C@@H]1CC1C3C[C@H](F)C4=CC(=O)C=C[C@]4(C)[C@@]3(F)[C@@H](O)C[C@@]12C (stereo not given in full)	7790
CCOC(=O)COc1ccc2c(=O)cc(-c3ccccc3)oc2c1	8860
OC[C@H]1OC([S-])[C@H](O)[C@@H](O)[C@@H]1O.[Au+] (stereo not given in full)	10700
CC(C)[C@H](CO)Nc1nc(Nc2cccc(Cl)c2)c2ncn(C(C)C)c2n1	1030
O=C1O[C@H](C(O)CO)C(O)=C1O (stereo not given in full)	13100
CC(C)CC1C(=O)N2CCC[C@H]2C2(O)O[C@](NC(=O)C3C=C4c5cccc6[nH]c(Br)c(c56)C[C@H]4N(C)C3)(C(C)C)C(=O)N12 (stereo not given in full)	11100
C=C1CC2C3C=C(C)C4=CC(=O)CC[C@]4(C)C3CC[C@]2(C)[C@@]1(OC(C)=O)C(C)=O (stereo not given in full)	4640
Nc1nc(N)c2nc(CNc3ccc(C(=O)NC(CCC(=O)O)C(=O)O)cc3)cnc2n1 (stereo not given)	2230
Cc1c(O)c(=O)n(-c2ccccc2)n1C	8790
OCc1ccccc1	9290
CO/N=C(/C(=O)N[C@@H]1C(=O)N2C(C(=O)OCSC(=O)c3ccco3)=CCS[C@H]12)c1csc(N)n1	9350
C#C[C@]1(OC(C)=O)CCC2C3CCC4=C/C(=N/O)CCC4C3CC[C@@]21CC (stereo not given in full)	12700
CC(O)(CC(=O)O)CC(=O)O	9000
CCNC1CN(CCCOC)S(=O)(=O)c2sc(S(N)(=O)=O)cc21 (stereo not given)	9750
CCC(=O)OCC(=O)[C@@]1(OC(=O)CC)[C@@H](C)CC2C3CCC4=CC(=O)C=C[C@]4(C)C3(F)[C@@H](O)C[C@@]21C (stereo not given in full)	8480
C[C@H]1[C@@H](OC(=O)CCC(=O)O)O[C@@H]2OC3(C)CC[C@H]4[C@H](C)CC[C@@H]1[C@@]24OO3	5910
CC1CNc2c(cccc2S(=O)(=O)N[C@@H](CCCN=C(N)N)C(=O)N2CC[C@@H](C)C[C@@H]2C(=O)O)C1 (stereo not given in full)	11700
C[N+]1(C)C2CC[C@H]1CC(OC(=O)C(O)c1ccccc1)C2 (stereo not given in full)	11800
C=C(C)C1CC=C(C)CC1 (stereo not given)	9220
Cn1c(=O)c(-c2c(Cl)cccc2Cl)cc2cnc(Nc3ccc(N4CCOCC4)cc3)nc21	768
CC(C)(C)/[N+]([O-])=C/c1ccc(S(=O)(=O)O)cc1S(=O)(=O)O	5520
COc1c(N2C[C@@H]3CCCN[C@@H]3C2)c(F)cc2c(=O)c(C(=O)O)cn(C3CC3)c12	7410
COc1ccc(CCN(C)CCCOc2ccc(S(=O)(=O)c3c(C(C)C)c4ccccc4n3C)cc2)cc1OC	219
CC(Oc1ccc(O)cc1)(P(=O)(O)O)P(=O)(O)O	9200
CN[C@@H]1C(OC2[C@H](O[C@H]3[C@H](O)[C@@H](O)[C@H](N=C(N)N)[C@@H](O)[C@@H]3N=C(N)N)OC(C)[C@]2(O)CO)OC(CO)C(O)C1O (stereo not given in full)	13200
COc1cc(C)c(/C=C/C(C)=C/C=C/C(C)=C/C(=O)O)c(C)c1C	10300
N[C@@H](CO)c1ccccc1	5460
CC(=O)OCC(=O)[C@@]1(O)CCC2C3CCC4=CC(=O)C=C[C@]4(C)[C@@]3(Cl)[C@@H](Cl)C[C@@]21C (stereo not given in full)	7190
N[C@H](Cc1cc(I)c(Oc2ccc(O)c(I)c2)c(I)c1)C(=O)O	12400
Nc1ccn([C@@H]2CS[C@H](CO)O2)c(=O)n1	11100
CC(C)OC(=O)CCC/C=C\C[C@@H]1[C@@H](/C=C/C(O)COc2cccc(C(F)(F)F)c2)[C@H](O)C[C@@H]1O (stereo not given in full)	10100
CC(C)N1CCN(c2ccc(OC[C@H]3CO[C@](Cn4cncn4)(c4ccc(Cl)cc4Cl)O3)cc2)CC1	10400

* * *

- testDescription: viability loss in pontine glioma line – cell-based, SU-DIPG-XXV, MIPE5.0, CellTiter-Glo, qHTS, dose response (AID 1347065);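 note: cells exposed to compound for 48 hours before ATP readout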
- testConditions: CellTiter-Glo ATP luminescence
Results filed as inconclusive are left out. Activity calls are given as the source filed them. Cut-off not given; nearly all actives show AC50 up to about 26 µM.
Labels: 1.0 = active, 0.0 = inactive

compound	discreteLabel
O=c1c(O)c(-c2ccc(O)cc2)oc2cc(O)cc(O)c12	0.0
OC[C@@H](O)[C@@H](O)[C@H](O)[C@@H](O)CO	0.0
O=C1CN2Cc3c(ccc(Cl)c3Cl)N=C2N1	0.0
NC(=O)c1ccc2[nH]ccc2c1	0.0
CCCC[C@@H](C=O)NC(=O)[C@H](CC(C)C)NC(=O)OCc1ccccc1	0.0
COc1ccc(Nc2nccc(NCCO)n2)cc1	0.0
N[C@@H](CC(=O)N1CCn2c(nnc2C(F)(F)F)C1)Cc1cc(F)c(F)cc1F	0.0
COc1cccc2c1C(=O)c1c(O)c3c(c(O)c1C2=O)C[C@@](O)(C(=O)CO)C[C@@H]3O[C@H]1C[C@H](N)[C@@H](O)[C@H](C)O1	1.0
COc1cc(C)c(/C=C/C(C)=C/C=C/C(C)=C/C(=O)O)c(C)c1C	1.0
CC[C@H](NC(C)C)[C@H](O)c1ccc(O)c2[nH]c(=O)ccc12	0.0
Cc1cc2nc3c(=O)[nH]c(=O)nc-3n(CC(O)C(O)C(O)CO)c2cc1C (stereo not given)	0.0
COc1ccc(CCN(C)CCCOc2ccc(S(=O)(=O)c3c(C(C)C)c4ccccc4n3C)cc2)cc1OC	1.0
C[C@H]1COC2=C1C(=O)C(=O)c1c2ccc2c1CCCC2(C)C	1.0
CN(C)CCOc1ccc(/C(=C(/CCCl)c2ccccc2)c2ccccc2)cc1	1.0
CC(=O)NC(CS)C(=O)O (stereo not given)	0.0
